I'd be grateful if you could share measured cytotoxicity at 10 µM for these entries.
test: Toxicity liver stage against HepG2, at 10uM; type: cell-based; parameters: test concentration 10 uM, cell line HepG2-A16-CD81EGFP; details: human, HepG2-A16-CD81EGFP cells; read-out: INHIBITION
Use % as the unit, but write only the number.

compound CC(C)CN(c1cn[nH]c1)S(=O)(=O)c1cccc(C#N)c1 , cytotoxicity at 10 µM observed: 8.75

compound Cc1cc2[nH]c(=O)c(=O)[nH]c2cc1S(=O)(=O)NC1CCCCC1 , cytotoxicity at 10 µM observed: -8.41

compound COc1cc(C(=O)NS(=O)(=O)c2cncc(Br)c2)cc(Cl)c1OC , cytotoxicity at 10 µM observed: -2.21

compound Cc1cncc(C(=O)NCC2COCc3c(C)nnn3C2)c1 (stereo not drawn) , cytotoxicity at 10 µM observed: -2.03

compound CC(C)OCCCN(Cc1cnn(C)c1)Cc1ccccn1 , cytotoxicity at 10 µM observed: 1.24

compound CSCCCN1CCCC(Cn2ccnc2)C1 (stereo not drawn) , cytotoxicity at 10 µM observed: 5.07

compound COc1ccc(CNCc2ccnc(N3CCOCC3)c2)cc1OC , cytotoxicity at 10 µM observed: 1.64

compound Cc1occc1C(=O)N1Cc2nccn2CC(CN2CCOCC2)C1 (stereo not drawn) , cytotoxicity at 10 µM observed: -117
